assay: Cytotoxicity against human HuH7 cells after 144 hrs by MTT assay; type: functional, cell-based; conditions: Huh-7, 144 h
pIC50: −log10 of the molar value.

>  <compound>
O=P(O)(Oc1ccccc1)C(O)(c1ccc(Br)cc1)P(=O)(O)Oc1ccccc1 (stereo not given)

>  <pIC50>
3.90

$$$$
>  <compound>
O=P(O)(O)C(O)(c1ccc(Br)cc1)P(=O)(O)O

>  <pIC50>
3.36

$$$$
>  <compound>
O=P(O)(O)C(O)(c1ccc(Br)cc1)P(=O)(O)Oc1ccccc1 (stereo not given)

>  <pIC50>
4.00

$$$$
>  <compound>
O.O=P(O)(O)C(O)(Cn1ccnc1)P(=O)(O)O [ZOLEDRONIC ACID]

>  <pIC50>
4.22

$$$$
>  <compound>
O=P(O)(Oc1ccccc1)C(O)(c1ccccc1)P(=O)(O)Oc1ccccc1 (stereo not given)

>  <pIC50>
3.26

$$$$

Provenance of the data: ChEMBL document CHEMBL3232952
